Target: CYP3A4 (Homo sapiens, UniProt P08684)
Sequence (P08684 whole entry): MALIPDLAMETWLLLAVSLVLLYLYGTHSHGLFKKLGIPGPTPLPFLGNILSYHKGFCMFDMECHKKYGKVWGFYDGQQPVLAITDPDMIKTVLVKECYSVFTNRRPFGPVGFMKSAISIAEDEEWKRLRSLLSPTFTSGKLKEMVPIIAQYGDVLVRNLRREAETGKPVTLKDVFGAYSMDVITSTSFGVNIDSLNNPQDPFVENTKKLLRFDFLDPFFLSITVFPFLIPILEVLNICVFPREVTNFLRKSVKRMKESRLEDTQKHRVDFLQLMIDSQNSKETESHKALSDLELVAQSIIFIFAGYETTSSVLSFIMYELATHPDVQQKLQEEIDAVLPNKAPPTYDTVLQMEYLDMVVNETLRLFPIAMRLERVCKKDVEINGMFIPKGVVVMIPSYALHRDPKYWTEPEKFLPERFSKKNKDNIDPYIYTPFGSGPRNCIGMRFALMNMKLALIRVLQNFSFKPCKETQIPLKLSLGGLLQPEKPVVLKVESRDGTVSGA
QUANTITY NAME: inhibition at 10 µM (%)
Your answer should be a plain number; it is taken to be in %.

Result for O=C(Nc1nnc(-c2ccc(F)cc2)o1)c1ccc(Oc2ccccc2)nc1 , tested on CYP3A4 (Homo sapiens, UniProt P08684), inhibition at 10 µM: 6

---

Test: Microsomal stability + NADPH
Details: mouse liver microsomes, 0.5 hr at 37° C.
QUANTITY NAME: Microsomal Stability + NADPH % degraded (%)
Your answer should be a plain number; it is taken to be in %.

Some solved cases for reference:
INSERT INTO measurements (molecule, quantity_name, quantity_unit, assay_value) VALUES
  ('O=C(Nc1nnc(-c2ccc(F)cc2)o1)N1CCc2ccccc2C1 [compound 4132]', 'Microsomal Stability + NADPH % degraded', '%', 27),
  ('O=C(Nc1nnc(-c2ccc(F)cc2)o1)c1ccc(Oc2ccccc2)nc1 [compound 4237]', 'Microsomal Stability + NADPH % degraded', '%', 9),
  ('O=C(Nc1nnc(-c2ccc(F)cc2)o1)c1ccc(OC2CCCC2)cc1 [compound 4293]', 'Microsomal Stability + NADPH % degraded', '%', 59),
  ('O=C(Nc1nnc(-c2ccc(F)cc2)o1)N1CCC(Cl)=C(Cl)C1 [compound 4737]', 'Microsomal Stability + NADPH % degraded', '%', 21);

Record O=C(Nc1nnc(-c2ccc(F)cc2)o1)c1ccc(OC2CCCCC2)cc1 [compound 4292] . Reported Microsomal Stability + NADPH % degraded: 20

---

Test system: E. coli TolC(−)
Assay: TolC(−) MIC (NB)
Format: cell-based
Details: Escherichia coli, read-out: TolC(−) MIC (μM)(NB)
Items are presented alongside their recorded MIC.

Some solved cases for reference:
INSERT INTO measurements (molecule, assay_value) VALUES
  ('O=C(Nc1nnc(-c2ccc(F)cc2)o1)N1Cc2ncsc2C1 [compound 4497]', '≥ 100 µM'),
  ('CN1CCCN(C(=O)Nc2nnc(-c3ccc(F)cc3)o2)CC1 [compound 4349]', '≥ 100 µM'),
  ('O=C(Nc1nnc(-c2ccc(F)cc2)o1)N1CCC(N2CCCCC2)CC1 [compound 4702]', '> 100 µM');

Result for O=C(Nc1nnc(-c2ccc(F)cc2)o1)N1CCN2CCCCC2C1 (stereo not shown) [compound 4199] , tested on E. coli TolC(−), MIC: ≥ 100 µM

---

Test: Microsomal stability + NADPH
Settings: mouse liver microsomes, 0.5 hr at 37° C.
Items are presented alongside their recorded Microsomal Stability + NADPH % degraded.

Some solved cases for reference:
INSERT INTO measurements (compound, quantity_name, assay_value) VALUES
  ('Cc1cc(C)cc(Oc2ccc(C(=O)Nc3nnc(-c4ccc(F)cc4)o3)cc2)c1 [compound 4308]', 'Microsomal Stability + NADPH % degraded', '<30%'),
  ('Cc1ccccc1Oc1ccc(C(=O)Nc2nnc(-c3ccc(F)cc3)o2)cc1 [compound 4307]', 'Microsomal Stability + NADPH % degraded', '<30%');

Please turn your attention to the following entry.
Record O=C(Nc1nnc(-c2ccc(F)cc2)o1)N1CCc2cc(F)ccc2C1 [compound 4331] . Reported Microsomal Stability + NADPH % degraded: <30%
